Kindly state pIC50 for each of the entries shown.
# test system: ERα (Homo sapiens, UniProt P03372)
# run parameters: read-out: TR-FRET ERα IC50; displacement of fluorescent-labeled E2 from the LBD of ERα
One number for each entry, as −log10 of the molar value.

compound	test system	pIC50
CCC(=C(c1ccc(O)cc1)c1ccc(/C=C/C(=O)NCCCCCNC(=O)CCc2nc3cc(O)ccc3[nH]2)cc1)c1ccccc1 (mixture of isomers) [Compound 42]	ERα (Homo sapiens, UniProt P03372)	8.89

Give me pIC50 for each of these compounds, listed below.
1. CCC(=C(c1ccc(O)cc1)c1ccc(/C=C/C(=O)NCCCNC(=O)c2ccc(N3CCN(C(=O)CCCCCCCn4c(=S)[nH]c5ccccc5c4=O)CC3)cc2)cc1)c1ccccc1 (mixture of isomers) [Compound 18]
2. CCC(=C(c1ccc(O)cc1)c1ccc(/C=C/C(=O)NCCNC(=O)CCc2nc3cc(O)ccc3[nH]2)cc1)c1ccccc1 (mixture of isomers) [Compound 39]
3. CCC(=C(c1ccc(O)cc1)c1ccc(/C=C/C(=O)NCCCNC(=O)CCc2nc3ccc(OC)cc3[nH]2)cc1)c1ccccc1 (mixture of isomers) [Compound 32]
4. CCC(=C(c1ccc(O)cc1)c1ccc(/C=C/C(=O)NCCCCNC(=O)CCc2nc3cc(OC)ccc3[nH]2)cc1)c1ccccc1 (mixture of isomers) [Compound 34]
5. CCC(=C(c1ccc(O)cc1)c1ccc(/C=C/C(=O)NCCCCCCNC(=O)CCc2nc3cc(OC)ccc3[nH]2)cc1)c1ccccc1 (mixture of isomers) [Compound 38]
6. CCC(=C(c1ccc(O)cc1)c1ccc(/C=C/C(=O)NCCCNC(=O)c2ccc(N3CCN(C(=O)CCCn4c(=S)[nH]c5ccccc5c4=O)CC3)cc2)cc1)c1ccccc1 (mixture of isomers) [Compound 17]
7. CCC(=C(c1ccc(O)cc1)c1ccc(/C=C/C(=O)NCCCCCNC(=O)CCc2nc3ccc(OC)cc3[nH]2)cc1)c1ccccc1 (mixture of isomers) [Compound 36]
8. CCC(=C(c1ccc(O)cc1)c1ccc(/C=C/C(=O)NCCCNC(=O)CCCn2c(=S)[nH]c3ccccc3c2=O)cc1)c1ccccc1 (mixture of isomers) [Compound 15]

1. 8.37
2. 8.84
3. 8.39
4. 8.65
5. 8.58
6. 8.33
7. 8.81
8. 8.40

----------
# test system: ERα (Homo sapiens)
# Sequence (P03372 311-547 limits assumed): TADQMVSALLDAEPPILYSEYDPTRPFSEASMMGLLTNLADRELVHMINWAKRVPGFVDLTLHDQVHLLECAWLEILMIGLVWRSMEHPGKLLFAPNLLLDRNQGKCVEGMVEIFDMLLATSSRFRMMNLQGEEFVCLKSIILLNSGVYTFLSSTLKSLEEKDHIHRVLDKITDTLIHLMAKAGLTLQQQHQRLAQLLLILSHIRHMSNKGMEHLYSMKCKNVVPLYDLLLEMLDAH
# run parameters: relative binding affinity compared to E2 (100%)
endpoint: RBA ERα (%)
One number for each entry, in %.

# batch size: 2; output RBA ERα per entry
1. CCC(=C(c1ccc(O)cc1)c1ccc(/C=C/C(=O)NCCCCNC(=O)CCc2nc3cc(OC)ccc3[nH]2)cc1)c1ccccc1 (mixture of isomers)
2. CCC(=C(c1ccc(O)cc1)c1ccc(/C=C/C(=O)NCCCNC(=O)c2ccc(N3CCN(C(=O)CCCn4c(=S)[nH]c5ccccc5c4=O)CC3)cc2)cc1)c1ccccc1 (mixture of isomers)

14.9
7.1

For each of the items listed, what is its RBA ERα?
1. CCC(=C(c1ccc(O)cc1)c1ccc(/C=C/C(=O)NCCCNC(=O)c2ccc(N3CCN(C(=O)CCCCCCCn4c(=S)[nH]c5ccccc5c4=O)CC3)cc2)cc1)c1ccccc1 (mixture of isomers)
2. CCC(=C(c1ccc(O)cc1)c1ccc(/C=C/C(=O)NCCCCCCNC(=O)CCc2nc3cc(OC)ccc3[nH]2)cc1)c1ccccc1 (mixture of isomers)
3. CCC(=C(c1ccc(O)cc1)c1ccc(/C=C/C(=O)NCCNC(=O)CCc2nc3cc(O)ccc3[nH]2)cc1)c1ccccc1 (mixture of isomers)

1: 7.8; 2: 12.6; 3: 22.8

----------
# test system: ERα (Homo sapiens, UniProt P03372)
# protocol notes: TR-FRET coactivator (PGC-1 peptide) recruitment assay, ERα LBD
# Type: biochemical
# run parameters: E2 4 nM, incubation time 30 min; read-out: inhibition of coactivator recruitment IC50, ERα
endpoint: IC50 (nM)
Give bare numbers, in nM.

Sample CCC(=C(c1ccc(O)cc1)c1ccc(/C=C/C(=O)NCCCCCNC(=O)CCc2nc3ccc(OC)cc3[nH]2)cc1)c1ccccc1 (mixture of isomers) ; IC50 observed: 153
